# Tested on: P-Akt (S473)
# Assay Overview: Cell based AlphaLISA assay, inhibition of P-Akt (S473) (mTORC2 substrate phosphorylation) in MDA-MB-468 cells
# Assay Setup: Homo sapiens, MDA-MB-468, 4 h, AlphaLISA, two to four hours at 37° C., read-out: pIC50 for Inhibition of mTORC1 and mTORC2 Substrate Phosphorylation, p-AKT 1/2/3 -(S473) (converted)
Measured Parameter: IC50

* CO[C@H]1C[C@@H]2CC[C@@H](C)[C@@](O)(O2)C(=O)C(=O)N2CCCC[C@H]2C(=O)O[C@H]([C@H](C)C[C@@H]2CC[C@H](OCCCCc3cn(CCOCCOCCOCCOCCOCCOCCC(=O)NCCCCn4nc(-c5cccc(C(=O)NC6=NCCS6)c5)c5c(N)ncnc54)nn3)[C@H](OC)C2)CC(=O)[C@H](C)/C=C(\C)[C@@H](O)[C@@H](OC)C(=O)[C@H](C)C[C@H](C)/C=C/C=C/C=C/1C (stereo in doubt) [Example 41] | > 1 µM
* CO[C@H]1C[C@@H]2CC[C@@H](C)[C@@](O)(O2)C(=O)C(=O)N2CCCC[C@H]2C(=O)O[C@H]([C@H](C)C[C@@H]2CC[C@@H](OC(=O)NCc3cn(CCOCCOCCOCCOCCOCCOCCC(=O)NCCCCn4nc(-c5ccc6oc(N)nc6c5)c5c(N)ncnc54)nn3)[C@H](OC)C2)CC(=O)[C@H](C)/C=C(\C)[C@@H](O)[C@@H](OC)C(=O)[C@H](C)C[C@H](C)/C=C/C=C/C=C/1C [Example 60] | 0.00316 to 0.0316 µM

Please examine the following record next.
The molecule listed as CO[C@H]1C[C@@H]2CC[C@@H](C)[C@@](O)(O2)C(=O)C(=O)N2CCCC[C@H]2C(=O)O[C@H]([C@H](C)C[C@@H]2CC[C@H](n3cc(COC(=O)NCCOCCOCCOCCC(=O)NCCOCCOCCC(=O)NCCCCn4nc(-c5cc6cc(O)ccc6[nH]5)c5c(N)ncnc54)nn3)[C@H](OC)C2)CC(=O)[C@H](C)/C=C(\C)[C@@H](O)[C@@H](OC)C(=O)[C@H](C)C[C@H](C)/C=C/C=C/C=C/1C [Example 121] has a reported IC50 of > 1 µM

====

# Tested on: P-Akt (S473)
# Assay Overview: Cell based AlphaLISA assay, inhibition of P-Akt (S473) (mTORC2 substrate phosphorylation) in MDA-MB-468 cells
# Assay Setup: Homo sapiens, MDA-MB-468, 4 h, AlphaLISA, two to four hours at 37° C., read-out: pIC50 for Inhibition of mTORC1 and mTORC2 Substrate Phosphorylation, p-AKT 1/2/3 -(S473) (converted)
# Protocol: Cell Based AlphaLISA Assays for Determining IC50 for Inhibition of P-Akt (S473), P-4E-BP1 (T37/46), and P-P70S6K (T389) in MDA-MB-468 Cells mTOR Kinase Cellular Assay To measure functional activity of mTORC1 and mTORC2 in cells the phosphorylation of 4EBP1 (Thr37/46) and P70S6K (Thr389), and AKT1/2/3 (Ser473) was monitored using AlphaLisa SureFire Ultra Kits (Perkin Elmer). […] Incubations were terminated by removal of the assay buffer and addition of lysis buffer provided with the assay kit. […]
# IC50 annotations

- CO[C@H]1C[C@@H]2CC[C@@H](C)[C@@](O)(O2)C(=O)C(=O)N2CCCC[C@H]2C(=O)O[C@H]([C@H](C)C[C@@H]2CC[C@@H](O)[C@H](OC)C2)C[C@@H](O)[C@H](C)/C=C(\C)[C@@H](O)[C@@H](OC)C(=NOCc2cn(-c3cnc(N4CCN(c5ncc(C(=O)NCCOCCOCCC(=O)NCCCCn6nc(-c7ccc8oc(N)nc8c7)c7c(N)ncnc76)cn5)CC4)nc3)nn2)[C@H](C)C[C@H](C)/C=C/C=C/C=C/1C [Example 192]: > 1000 nM
- CO[C@H]1C[C@@H]2CC[C@@H](C)[C@@](O)(O2)C(=O)C(=O)N2CCCC[C@H]2C(=O)O[C@H]([C@H](C)C[C@@H]2CC[C@@H](OCc3cccc(-c4cnc(N5CCN(Cc6cn(CCOCCOCCOCCOCCC(=O)NCCCCn7nc(-c8ccc9oc(N)nc9c8)c8c(N)ncnc87)nn6)CC5)nc4)c3)[C@H](OC)C2)CC(=O)[C@H](C)/C=C(\C)[C@@H](O)[C@@H](OC)C(=O)[C@H](C)C[C@H](C)/C=C/C=C/C=C/1C [Example 21]: 3.16 to 31.6 nM
- CO[C@H]1C[C@@H]2CC[C@@H](C)[C@@](O)(O2)C(=O)C(=O)N2CCCCC2C(=O)O[C@H]([C@H](C)C[C@@H]2CC[C@H](n3cc(COCCOCCOCCOCCOCCOCCOCCOCCOCCOCCC(=O)NCCCCn4nc(-c5ccc6oc(N)nc6c5)c5c(N)ncnc54)nn3)[C@H](OC)C2)CC(=O)[C@H](C)/C=C(\C)[C@@H](O)[C@@H](OC)C(=O)[C@H](C)C[C@H](C)/C=C/C=C/C=C/1C (stereo in doubt) [Example 195]: 3.16 to 31.6 nM
- CO[C@H]1C[C@@H]2CC[C@@H](C)[C@@](O)(O2)C(=O)C(=O)N2CCCC[C@H]2C(=O)O[C@H]([C@H](C)C[C@@H]2CC[C@H](n3cc(COC(=O)NCCOCCOCCOCCC(=O)NCCOCCOCCOCCC(=O)NCCCCn4nc(-c5ccc6oc(N)nc6c5)c5c(N)ncnc54)nn3)[C@H](OC)C2)CC(=O)[C@H](C)/C=C(\C)[C@@H](O)[C@@H](OC)C(=O)[C@H](C)C[C@H](C)/C=C/C=C/C=C/1C [Example 122]: 3.16 to 31.6 nM

Please examine the following record next.
The compound listed as CO[C@H]1C[C@@H]2CC[C@@H](C)[C@@](O)(O2)C(=O)C(=O)N2CCCC[C@H]2C(=O)O[C@H]([C@H](C)C[C@@H]2CC[C@H](n3cc(-c4cccc(C(=O)NCCOCCOCCOCCC(=O)NCCOCCOCCOCCOCCC(=O)NCCCCn5nc(-c6cc7cc(O)ccc7[nH]6)c6c(N)ncnc65)c4)nn3)[C@H](OC)C2)CC(=O)[C@H](C)/C=C(\C)[C@@H](O)[C@@H](OC)C(=O)[C@H](C)C[C@H](C)/C=C/C=C/C=C/1C [Example 140] has a reported IC50 of 31.6 to 1000 nM

The reported measurements were obtained from patent US20230093861A1.
